Tested on: L1210 leukemia ip in BDF1 mice, survival T/C
Test: NCI In Vivo Anticancer Drug Screen. Data for tumor model L1210 Leukemia (intraperitoneal) in B6D2F1 (BDF1) mice
Conditions: endpoint: mean survival time; dose: 300.0 mg/kg/injection; schedule: Q01DX001 (ip); vehicle: saline; higher = longer survival
Toxic doses and inconclusive results are not listed.
measure-name: T/C

Problem: Tell me the measured T/C of O=C(/C=C/c1ccco1)c1ccc(F)cc1 , please.
Solution: 102 % of control

Problem: Tell me the measured T/C of Cc1ccc(S(=O)(=O)N(C)CCC(C)C(=O)NN(C)c2ccccc2)cc1 (stereo not drawn) , please.
Solution: 90 % of control

Problem: Tell me the measured T/C of CC(C)=C(Br)Br , please.
Solution: 96 % of control

Problem: Tell me the measured T/C of COc1ccccc1C1CCCCCCC1OS(=O)(=O)c1ccc(C)cc1 (stereo not drawn) , please.
Solution: 92 % of control

Problem: Tell me the measured T/C of CCCCCCC(C(=O)OCC)P(=O)(OCC)OCC (stereo not drawn) , please.
Solution: 100 % of control

Problem: Tell me the measured T/C of c1ccn2cncc2c1 , please.
Solution: 102 % of control

Problem: Tell me the measured T/C of CC(=O)CC(=O)Nc1ccc(C(=O)c2ccccc2)cc1 , please.
Solution: 90 % of control

Problem: Tell me the measured T/C of CC1=C2/C=c3\[nH]/c(c(CCC(=O)NCCN)c3C)=C\c3[nH]c(c(C)c3CCC(=O)NCCN)CC3NC(CC(=N2)C1=NCCN)C(C)=C3NCCN (stereo not drawn) , please.
Solution: 102 % of control

---

System: L1210 leukemia ip in BDF1 mice, survival T/C
Assay: NCI In Vivo Anticancer Drug Screen. Data for tumor model L1210 Leukemia (intraperitoneal) in B6D2F1 (BDF1) mice
Details: endpoint: mean survival time; dose: 400.0 mg/kg/injection; schedule: Q04DX003 (ip); vehicle: acetone; higher = longer survival
Inconclusive results and toxic doses are left out.
measure-name: T/C

Problem: Tell me the measured T/C of COc1ccccc1C(=O)NS(=O)(=O)c1ccc(Cl)cc1 , please.
Solution: 96 % of control

Problem: Tell me the measured T/C of COc1ccccc1CNc1ncnc2nc[nH]c12 , please.
Solution: 107 % of control

Problem: Tell me the measured T/C of CC1(C)CN(N=O)C(C)(C)CN1N=O , please.
Solution: 96 % of control

Problem: Tell me the measured T/C of O=S1(=O)CC(c2ccc(Br)cc2)Nc2ccccc21 (centres undefined) , please.
Solution: 100 % of control

---

Tested on: L1210 leukemia ip in BDF1 mice, survival T/C
Test: NCI In Vivo Anticancer Drug Screen. Data for tumor model L1210 Leukemia (intraperitoneal) in B6D2F1 (BDF1) mice
Details: endpoint: mean survival time; dose: 400.0 mg/kg/injection; schedule: Q04DX003 (ip); vehicle: saline; higher = longer survival
Inconclusive results and toxic doses are left out.
Task for the reader: assign each of the following compounds its reported T/C.

Problem: Tell me the measured T/C of CN1C(=O)CC[n+]2ccccc21 , please.
Solution: 86 % of control

Problem: Tell me the measured T/C of Cc1ccc(S(=O)(=O)NC(=O)NC2CCCCC2)cc1 , please.
Solution: 104 % of control

Problem: Tell me the measured T/C of CC(=O)Nc1ccc(S(N)(=O)=O)cn1 , please.
Solution: 86 % of control

Problem: Tell me the measured T/C of O=[N+]([O-])C(CO)(CO)CO , please.
Solution: 101 % of control

Problem: Tell me the measured T/C of CCC1(C)NC(=O)NC1=O (stereo not drawn) , please.
Solution: 101 % of control

Problem: Tell me the measured T/C of CCOC(=O)CN1CCN2C(=O)N(CC)CCC2C1 (stereo not drawn) , please.
Solution: 101 % of control

Problem: Tell me the measured T/C of O=S(=O)(c1ccc(Cl)cc1)N1CCN(S(=O)(=O)c2ccc(Cl)cc2)C1 , please.
Solution: 103 % of control

Problem: Tell me the measured T/C of COc1ccc2ncc(CO)cc2c1 , please.
Solution: 112 % of control

Problem: Tell me the measured T/C of CC(O)C(NCNC(=O)C1=C(O)C2(O)C(=O)C3=C(O)c4c(O)cccc4C(C)(O)C3CC2C(N(C)C)C1=O)C(=O)O (stereo not drawn) , please.
Solution: 109 % of control

Problem: Tell me the measured T/C of CCOP(=O)(Cc1ccc(CP(=O)(OCC)OCC)cc1)OCC , please.
Solution: 101 % of control

Problem: Tell me the measured T/C of CN(C)CCOC(=O)COc1ccc(Cl)cc1 , please.
Solution: 101 % of control

Problem: Tell me the measured T/C of CCN(CC)CCOCCO , please.
Solution: 109 % of control

Problem: Tell me the measured T/C of CC(=O)Nc1ccc(S(=O)(=O)Cl)cc1 , please.
Solution: 90 % of control

---

Task for the reader: assign each of the following compounds its reported T/C.
System: L1210 leukemia ip in BDF1 mice, survival T/C
Assay: NCI In Vivo Anticancer Drug Screen. Data for tumor model L1210 Leukemia (intraperitoneal) in B6D2F1 (BDF1) mice
Conditions: endpoint: mean survival time; dose: 100.0 mg/kg/injection; schedule: Q04DX003 (ip); vehicle: Klucel (hydroxypropylcellulose) (HPC); higher = longer survival
Procedure: The antitumor activity of compounds was measured in mice bearing transplantable tumors. Survival or tumor size were measured and the results are expressed as the measurement made in the treated group (T) divided by the measurement made in the vehicle treated control group (C). The tumor model used in this assay is L1210 Leukemia (intraperitoneal) in B6D2F1 (BDF1) mice
Inconclusive results and toxic doses are left out.

Problem: Give T/C (L1210 leukemia ip in BDF1 mice, survival T/C) of the following compound: c1ccc(C(N2CCCCC2)N2CCCCC2)cc1
Solution: 106 % of control

Problem: Give T/C (L1210 leukemia ip in BDF1 mice, survival T/C) of the following compound: Cc1cccc(C)c1N1C(=O)CCC1=O
Solution: 94 % of control

Problem: Give T/C (L1210 leukemia ip in BDF1 mice, survival T/C) of the following compound: O=C(NN(c1ccccc1)c1cccc2ccccc12)c1ccccc1
Solution: 89 % of control

Problem: Give T/C (L1210 leukemia ip in BDF1 mice, survival T/C) of the following compound: Cc1ccc(S(=O)(=O)N2CC3CC2CN3Cc2ccccc2)cc1 (stereo unspecified)
Solution: 98 % of control

Problem: Give T/C (L1210 leukemia ip in BDF1 mice, survival T/C) of the following compound: CC1C(C(C)(C)C)N1C (stereo unspecified)
Solution: 108 % of control

Problem: Give T/C (L1210 leukemia ip in BDF1 mice, survival T/C) of the following compound: C[Si](C)(C)c1c(F)c(F)cc(F)c1F
Solution: 98 % of control

Problem: Give T/C (L1210 leukemia ip in BDF1 mice, survival T/C) of the following compound: Cc1ccc(S(=O)(=O)Oc2ccc(I)cc2)cc1
Solution: 100 % of control

Problem: Give T/C (L1210 leukemia ip in BDF1 mice, survival T/C) of the following compound: CCNC(=O)C(=O)c1ccccc1NC(C)=O
Solution: 99 % of control

Problem: Give T/C (L1210 leukemia ip in BDF1 mice, survival T/C) of the following compound: Cc1cc(C)c(-c2c(Br)c(OC(=O)c3ccc([N+](=O)[O-])cc3)c(-c3c(C)cc(C)c(Br)c3C)c(Br)c2OC(=O)c2ccc([N+](=O)[O-])cc2)c(C)c1Br
Solution: 104 % of control

Problem: Give T/C (L1210 leukemia ip in BDF1 mice, survival T/C) of the following compound: O=C(Nc1ccc([N+](=O)[O-])cc1Cl)Oc1cccc2ccccc12
Solution: 105 % of control

Problem: Give T/C (L1210 leukemia ip in BDF1 mice, survival T/C) of the following compound: CCCCNC(=O)Nc1cccc(C)c1C
Solution: 95 % of control

Problem: Give T/C (L1210 leukemia ip in BDF1 mice, survival T/C) of the following compound: BrC1CC/C=C\CCC1Br (stereo unspecified)
Solution: 105 % of control

Problem: Give T/C (L1210 leukemia ip in BDF1 mice, survival T/C) of the following compound: OC(c1ccccc1)c1nnc(C(O)c2ccccc2)nn1 (stereo unspecified)
Solution: 94 % of control

Problem: Give T/C (L1210 leukemia ip in BDF1 mice, survival T/C) of the following compound: O=C(COc1cccc(C(=O)O)c1)Nc1ccccc1
Solution: 95 % of control

Problem: Give T/C (L1210 leukemia ip in BDF1 mice, survival T/C) of the following compound: O=C(NCCc1c[nH]c2ccccc12)C(=O)NCCc1c[nH]c2ccccc12
Solution: 108 % of control

Problem: Give T/C (L1210 leukemia ip in BDF1 mice, survival T/C) of the following compound: c1ccc(C2=NNC(c3ccccc3)=C(c3ccccc3)C2)cc1
Solution: 98 % of control

Problem: Give T/C (L1210 leukemia ip in BDF1 mice, survival T/C) of the following compound: CCOP(=O)(CCN(C(C)C)C(C)C)OCC
Solution: 88 % of control

Problem: Give T/C (L1210 leukemia ip in BDF1 mice, survival T/C) of the following compound: Cc1ccc(SC2CC3CC2C2COCC32)cc1 (stereo unspecified)
Solution: 90 % of control

Problem: Give T/C (L1210 leukemia ip in BDF1 mice, survival T/C) of the following compound: CC(C)OC(=O)Nc1ccc(Cl)cn1
Solution: 103 % of control

Problem: Give T/C (L1210 leukemia ip in BDF1 mice, survival T/C) of the following compound: O=[N+]([O-])c1cccc(S(=O)(=O)NNc2ccc(Br)cc2)c1
Solution: 96 % of control

Problem: Give T/C (L1210 leukemia ip in BDF1 mice, survival T/C) of the following compound: CNC(=O)C(C)(C)c1ccccc1
Solution: 96 % of control

Problem: Give T/C (L1210 leukemia ip in BDF1 mice, survival T/C) of the following compound: CCOC(=O)NNC(N)=S
Solution: 103 % of control

Problem: Give T/C (L1210 leukemia ip in BDF1 mice, survival T/C) of the following compound: CSc1ccc(NC(=O)Nc2cc(C)cc(C)n2)cc1
Solution: 98 % of control

Problem: Give T/C (L1210 leukemia ip in BDF1 mice, survival T/C) of the following compound: O=C(O)c1c(F)cccc1F
Solution: 95 % of control

Problem: Give T/C (L1210 leukemia ip in BDF1 mice, survival T/C) of the following compound: Oc1ccc(C2C=CCC2)cc1C1C=CCC1 (stereo unspecified)
Solution: 100 % of control

Problem: Give T/C (L1210 leukemia ip in BDF1 mice, survival T/C) of the following compound: ClC(Cl)=C1C(Cl)=C(Cl)C(Cl)=C1Cl
Solution: 96 % of control
